Where do these numbers come from? They come from the supplement of paper PMC9170038.

- Tested on: MS2 coat protein
- test: apparent KD of MS2 coat protein; designed switch direction (-1 OFF switch, 1 ON switch): -1; higher = weaker reporter binding
- testParameters: input ligand: FMN 200 uM
measuredAttribute: apparent KD of MS2 coat protein (nM)
Lab book: enter the figure in nM, no units written.

Here's what some known entries look like.
# sequenceChain, targetEntity, apparent KD of MS2 coat protein, nM
rows = [
    ("CUUUUGUGAGGAUAUUAGUAGUAAAUAAAUAAAAUUAUUACUGAGAAGGCACAUGAGGAUCACCCAUGUUCCUU [Salish 062 v20] (Eterna round: R97, puzzle: Exclusion 4)", "MS2 coat protein", 63.6),
    ("UAGAUACAUGAGGAUCACCCAUGUGAGGAUAUGAGAAUUAUAUUAAAUGAAUGUAGUAUCAGAAGGCACAAAGG [JR_Ex1_Sub049] (Eterna round: R97, puzzle: Exclusion 1)", "MS2 coat protein", 197),
    ("UUUUAGUCAGGAUAUACAUGAGGAUCACCCAUGUAAAAUUUUAAUUUAAUUUUAAGGUGUAGAAGGGACAAUCC [Ex3 #12] (Eterna round: R97, puzzle: Exclusion 3)", "MS2 coat protein", 43.1),
    ("ACAGUACAUGAGGAUCACCCAUGUGAGGAUAUAGUAGUAUGGGAGACCAUACUAAAGACUAGAAGGCGCGGGCA [Exclusion 1 S1] (Eterna round: R97, puzzle: Exclusion 1)", "MS2 coat protein", 43.6),
]

apparent KD of MS2 coat protein lookup needed for AGGUGCUUCUGGAAACAUGAGGAUCACCCAUGUUGAGUUAGCGAGGAUAUCGGUAACCAUUGUUAUGAGAAGGCGCAAACCAGA [Ex NG3 #37] (Eterna round: R96, puzzle: Exclusion NG 3) , thanks. 19.9

* * *

- Tested on: MS2 coat protein
- test: apparent KD of MS2 coat protein; designed switch direction (-1 OFF switch, 1 ON switch): -1; higher = weaker reporter binding
- testParameters: input ligand: microRNA oligo, concentration not stated
measuredAttribute: apparent KD of MS2 coat protein (nM)
Lab book: enter the figure in nM, no units written.

# sequenceChain, measurementUnits, recordedNumber
records = [
    ("AGCUGUGGCCGAGGAUAUCUGACUUCAAUAACCGAAAUAUAAUCGGACAUGAGGAUCACCCAUGUAGAGAAGGCGGUCUCAGCA [Eli eng2 - 083] (Eterna round: R96, puzzle: Exclusion NG 2)", "nM", 12.5),
    ("UGUUGUCGCGUAGGAUAUGAGGAUCACCCAUAUACAGGAUAUGAAAAGAAGGGUCUGAGGAUCACCCAGAAGGACGGGACAACU [pwkr exNG2 2xF5 2xFMN.28] (Eterna round: R96, puzzle: Exclusion NG 2)", "nM", 94.9),
]

Query sequence follows.
Record lookup: for MS2 coat protein, what apparent KD of MS2 coat protein belongs to GUCGUGCGGCAGUGCUGUACGAGUACAUGAGGAUCACCCAUGUAGGAUAUGGUUCGUUUUGCGUGCUAGAAGGGCGUGCGUUGG [Excl-NG3-LRO21] (Eterna round: R96, puzzle: Exclusion NG 3) ? 16.3

* * *

Items are presented alongside their recorded apparent KD of K4 kissing-loop reporter.
- System: K4 kissing-loop RNA reporter;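 also: bound reporter read as fluorescence of individual clusters on recovered sequencing chips by microscopy, with normalized cluster intensities fitted with a binding model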
- test: apparent KD of K4 kissing-loop reporter; higher = weaker reporter binding
- testParameters: Eterna round: R107; input ligand: FMN 200 uM
Lab book: enter the figure in nM, no units written.

Here's what some known entries look like.
# sequenceChain, targetEntity, apparent KD of K4 kissing-loop reporter (nM)
rows = [
    ("UAACUUGCAGUGAUGUUGCAAGAACUGGAUACCAGCAUGGAAACAUGCCCUUGGCAGCCAGAAGCUGGCUGCUUGUAAUGUCAGC [Design6]", "K4 kissing-loop RNA reporter", 162),
    ("CCCUCACGAGUGAUGUUCGUAGGGUACAGUCAGGAUAUCAUGCGGUUGAGAAGGGACAGAGAGGGCGGCGGCGGGUUGCUCCUCU [Beeded]", "K4 kissing-loop RNA reporter", 290),
    ("UGUCAUUGGUCGGCCGCCACUUCAUAAAGAGUGAUGUUCUAAAAGACGGAUCGAAAGAUCUGUCGAAGGACCGGGAUCGAUGACU [FiskerMod 11 - Jieux - Same State - Tryptophan B]", "K4 kissing-loop RNA reporter", 1200),
    ("UGUAUGUGAUUUGAUACCAGACCAGCUGGUGGUAUCUGAGUGAUGUUCAGGUAGGUUUGGGUCCCUUGGCAGCAAAUCGCAUACU [KL-SSTheoB26]", "K4 kissing-loop RNA reporter", 168),
]

apparent KD of K4 kissing-loop reporter lookup needed for UUUGGAUUGCACUAAGAGCGCAAGCGCCAACGAGGACCGGUACGGCCGCCACUCGCGGAGGAGUCCAGUGAUGUUGGACGGCCCG [Onenusan] , thanks. 233

apparent KD of K4 kissing-loop reporter lookup needed for AAACAUAAGUCUGAUACCAGCCUGGGAGAAGUGAUGUUUCUCGGUGCAUAACGCCUAUAAGGCCCUUGGCAGCAGCAUGCGCUUC [theeternabot_sameState_KL_Theo_B_10] , thanks. 547

* * *

Items are presented alongside their recorded apparent KD of MS2 coat protein.
- Tested on: MS2 coat protein
- test: apparent KD of MS2 coat protein; designed switch direction (-1 OFF switch, 1 ON switch): 1; higher = weaker reporter binding
- testParameters: input ligand: microRNA oligo, concentration not stated
Lab book: enter the figure in nM, no units written.

# sequenceChain, measuredAttribute, measurementUnits, recordedNumber
data = [
    ("GGUGCCAAUAAAGCCUACAUGAGGAUCACCCAUGUAUGUAGGCAGGAUAUCGUUUGCAAAGCAAACGAGAAGGGCUGAGGCACC [Mat - Same State NG 3 - JL Mod - D52] (Eterna round: R96, puzzle: Same State NG 3)", "apparent KD of MS2 coat protein", "nM", 39.8),
    ("GCGAGCGUACUUGCAACAUGAGGAUCACCCAUGUUAACUGGACAGGAUAUGGUACCGUUUCGGUACCAGAAGGGUUCCUCCAUG [JL SSNG3 3.61] (Eterna round: R96, puzzle: Same State NG 3)", "apparent KD of MS2 coat protein", "nM", 134),
    ("UUGAAGAAUUAAGGAUAUUGAAUACAUAUGUUAAACAUGAGGAUCACCCAUGUGGGUUGCGGUAUCGAGAAGGUAAAUUACUAG [Mat - same State NG 2 - JL mod - D80] (Eterna round: R96, puzzle: Same State NG 2)", "apparent KD of MS2 coat protein", "nM", 60.1),
    ("UUAUUAAUUACAUGAGGAUCACCCAUGUUUUUUUGUCAGAGACAGGAUAUAGAAGUCUCGUUUUACUAGAAGGGUCAUUAUAUG [JR_SSNG3_Sub014] (Eterna round: R96, puzzle: Same State NG 3)", "apparent KD of MS2 coat protein", "nM", 19),
    ("GACAAUCUAUCUGAGGAUAUCAUGAAAAAAACAUGAGGAUCACCCAUGUGCAGGAAAACUGCAUAUGAGAAGGCAGAUAGAUUGA [salish99_SS2_r3_009] (Eterna round: R96, puzzle: Same State 2)", "apparent KD of MS2 coat protein", "nM", 453),
]

Query sequence follows.
apparent KD of MS2 coat protein lookup needed for GGUCGGACUACAUGAGGAUCACCCAUGUGUGCGGAAACGCCAUAGGAUAUCUGUCCGAAAAGGUCAGAGAAGGGUGAACCGACC [Fiskers NG3ss - 67] (Eterna round: R96, puzzle: Same State NG 3) , thanks. 30.1

* * *

- Tested on: MS2 coat protein
- test: apparent KD of MS2 coat protein; designed switch direction (-1 OFF switch, 1 ON switch): -1; higher = weaker reporter binding
- testParameters: Eterna round: R95; input ligand: microRNA oligo, concentration not stated
apparent KD of MS2 coat protein vs 20 nM: at or above is yes (1), below is no (0).

Examples from the recorded data:
# sequenceChain, assignedLabel
rows = [
    ("CUUAGUAUCUAGGAUAUCUAGUACAUAGUAUCUAGAGAAGGAGAUACAUGAGGAUCACCCAUGUUCUGUGUUCU [Exclusion 6 - 1:b] (puzzle: Exclusion 6)", "yes (1)"),
    ("UCGGCGCGAGGAUAUGCGGUUUGUGCUUUGGGCCCUGGCGUACAUGAGGAUCACCCAUGUAGAAGGCGCGUUGC [Apr-15 SS2-48] (puzzle: Exclusion 2)", "no (0)"),
    ("GUGUAGAUAGGAUAUGCUGGAAUCUAGCGAAGCUAGGUUCCACAUGAGGAUCACCCAUGUAGAAGGGUCUACAC [Dot plot directed A v11] (puzzle: Exclusion 2)", "yes (1)"),
    ("UCAUAACAUGAGGAUCACCCAUGUCAGGAUAUGAUACUAUGUACUUCGGUACAUAGUAUCAGAAGGGACAUACU [Ex1-3: 12] (puzzle: Exclusion 1)", "yes (1)"),
]

In the following, a different sequence is considered.
Does CCGAGGUGGCGGUCCUAUGACAUGAGGAUCACCCAUGUACCUCGCCACAAGCUUUUUGCUCAUCUUAUAAUUCUCGG [Gelelebius] (puzzle: Sensor v3, turn-off variant 1) have a reported apparent KD of MS2 coat protein of at least 20 nM? yes (1)
